Hello, the source for this data is patent US12162896B2, in case you need it.

- assayRemarks: Hygroscopicity by dynamic vapor sorption (DVS)
- Assay type: physicochemical
- condition: 0% to 90% RH, about 25° C.
Counter-ions that a name gives are not always drawn.
measuredParameter: hygroscopicity (DVS analysis, in words)

{"compound": "COc1nn(C)cc1C(=O)N[S@@]1(=O)=NC(=O)c2ccc3c(c2)N(C[C@@H]2CC[C@H]2[C@@H](OC)/C=C/C[C@H](C)C1)C[C@@]1(CCCc2cc(Cl)ccc21)CO3 [DEA Salt Form 1]", "measuredParameter": "hygroscopicity (DVS analysis, in words)", "result": "moderately hygroscopic"}
{"compound": "COc1nn(C)cc1C(=O)N[S@@]1(=O)=NC(=O)c2ccc3c(c2)N(C[C@@H]2CC[C@H]2[C@@H](OC)/C=C/C[C@H](C)C1)C[C@@]1(CCCc2cc(Cl)ccc21)CO3 [K Salt Form 1]", "measuredParameter": "hygroscopicity (DVS analysis, in words)", "result": "moderately hygroscopic"}
{"compound": "COc1nn(C)cc1C(=O)N[S@@]1(=O)=NC(=O)c2ccc3c(c2)N(C[C@@H]2CC[C@H]2[C@@H](OC)/C=C/C[C@H](C)C1)C[C@@]1(CCCc2cc(Cl)ccc21)CO3 [Form III]", "measuredParameter": "hygroscopicity (DVS analysis, in words)", "result": "moderately hygroscopic"}
{"compound": "COc1nn(C)cc1C(=O)N[S@@]1(=O)=NC(=O)c2ccc3c(c2)N(C[C@@H]2CC[C@H]2[C@@H](OC)/C=C/C[C@H](C)C1)C[C@@]1(CCCc2cc(Cl)ccc21)CO3 [Form II]", "measuredParameter": "hygroscopicity (DVS analysis, in words)", "result": "slightly hygroscopic"}
{"compound": "COc1nn(C)cc1C(=O)N[S@@]1(=O)=NC(=O)c2ccc3c(c2)N(C[C@@H]2CC[C@H]2[C@@H](OC)/C=C/C[C@H](C)C1)C[C@@]1(CCCc2cc(Cl)ccc21)CO3 [Form I]", "measuredParameter": "hygroscopicity (DVS analysis, in words)", "result": "slightly hygroscopic"}
{"compound": "COc1nn(C)cc1C(=O)N[S@@]1(=O)=NC(=O)c2ccc3c(c2)N(C[C@@H]2CC[C@H]2[C@@H](OC)/C=C/C[C@H](C)C1)C[C@@]1(CCCc2cc(Cl)ccc21)CO3 [Na salt Form 1]", "measuredParameter": "hygroscopicity (DVS analysis, in words)", "result": "moderately hygroscopic"}

* * *

- assayRemarks: XRPD analysis of the sample post DVS (form change)
- Format: physicochemical
- condition: sample after DVS cycles at 25° C.
Structures can show the parent of a compound that is named as a salt.

{"molecule": "COc1nn(C)cc1C(=O)N[S@@]1(=O)=NC(=O)c2ccc3c(c2)N(C[C@@H]2CC[C@H]2[C@@H](OC)/C=C/C[C@H](C)C1)C[C@@]1(CCCc2cc(Cl)ccc21)CO3 [Form II]", "form change by XRPD post DVS": "no form change"}
{"molecule": "COc1nn(C)cc1C(=O)N[S@@]1(=O)=NC(=O)c2ccc3c(c2)N(C[C@@H]2CC[C@H]2[C@@H](OC)/C=C/C[C@H](C)C1)C[C@@]1(CCCc2cc(Cl)ccc21)CO3 [Na salt Form 1]", "form change by XRPD post DVS": "no form change"}
{"molecule": "COc1nn(C)cc1C(=O)N[S@@]1(=O)=NC(=O)c2ccc3c(c2)N(C[C@@H]2CC[C@H]2[C@@H](OC)/C=C/C[C@H](C)C1)C[C@@]1(CCCc2cc(Cl)ccc21)CO3 [Form III]", "form change by XRPD post DVS": "no form change"}
{"molecule": "COc1nn(C)cc1C(=O)N[S@@]1(=O)=NC(=O)c2ccc3c(c2)N(C[C@@H]2CC[C@H]2[C@@H](OC)/C=C/C[C@H](C)C1)C[C@@]1(CCCc2cc(Cl)ccc21)CO3 [DEA Salt Form 1]", "form change by XRPD post DVS": "no form change"}
{"molecule": "COc1nn(C)cc1C(=O)N[S@@]1(=O)=NC(=O)c2ccc3c(c2)N(C[C@@H]2CC[C@H]2[C@@H](OC)/C=C/C[C@H](C)C1)C[C@@]1(CCCc2cc(Cl)ccc21)CO3 [Form I]", "form change by XRPD post DVS": "no form change"}
{"molecule": "COc1nn(C)cc1C(=O)N[S@@]1(=O)=NC(=O)c2ccc3c(c2)N(C[C@@H]2CC[C@H]2[C@@H](OC)/C=C/C[C@H](C)C1)C[C@@]1(CCCc2cc(Cl)ccc21)CO3 [K Salt Form 1]", "form change by XRPD post DVS": "no form change"}
